Target: VEGFR3 (Homo sapiens)
Sequence (P35916 25-1363, species assumed): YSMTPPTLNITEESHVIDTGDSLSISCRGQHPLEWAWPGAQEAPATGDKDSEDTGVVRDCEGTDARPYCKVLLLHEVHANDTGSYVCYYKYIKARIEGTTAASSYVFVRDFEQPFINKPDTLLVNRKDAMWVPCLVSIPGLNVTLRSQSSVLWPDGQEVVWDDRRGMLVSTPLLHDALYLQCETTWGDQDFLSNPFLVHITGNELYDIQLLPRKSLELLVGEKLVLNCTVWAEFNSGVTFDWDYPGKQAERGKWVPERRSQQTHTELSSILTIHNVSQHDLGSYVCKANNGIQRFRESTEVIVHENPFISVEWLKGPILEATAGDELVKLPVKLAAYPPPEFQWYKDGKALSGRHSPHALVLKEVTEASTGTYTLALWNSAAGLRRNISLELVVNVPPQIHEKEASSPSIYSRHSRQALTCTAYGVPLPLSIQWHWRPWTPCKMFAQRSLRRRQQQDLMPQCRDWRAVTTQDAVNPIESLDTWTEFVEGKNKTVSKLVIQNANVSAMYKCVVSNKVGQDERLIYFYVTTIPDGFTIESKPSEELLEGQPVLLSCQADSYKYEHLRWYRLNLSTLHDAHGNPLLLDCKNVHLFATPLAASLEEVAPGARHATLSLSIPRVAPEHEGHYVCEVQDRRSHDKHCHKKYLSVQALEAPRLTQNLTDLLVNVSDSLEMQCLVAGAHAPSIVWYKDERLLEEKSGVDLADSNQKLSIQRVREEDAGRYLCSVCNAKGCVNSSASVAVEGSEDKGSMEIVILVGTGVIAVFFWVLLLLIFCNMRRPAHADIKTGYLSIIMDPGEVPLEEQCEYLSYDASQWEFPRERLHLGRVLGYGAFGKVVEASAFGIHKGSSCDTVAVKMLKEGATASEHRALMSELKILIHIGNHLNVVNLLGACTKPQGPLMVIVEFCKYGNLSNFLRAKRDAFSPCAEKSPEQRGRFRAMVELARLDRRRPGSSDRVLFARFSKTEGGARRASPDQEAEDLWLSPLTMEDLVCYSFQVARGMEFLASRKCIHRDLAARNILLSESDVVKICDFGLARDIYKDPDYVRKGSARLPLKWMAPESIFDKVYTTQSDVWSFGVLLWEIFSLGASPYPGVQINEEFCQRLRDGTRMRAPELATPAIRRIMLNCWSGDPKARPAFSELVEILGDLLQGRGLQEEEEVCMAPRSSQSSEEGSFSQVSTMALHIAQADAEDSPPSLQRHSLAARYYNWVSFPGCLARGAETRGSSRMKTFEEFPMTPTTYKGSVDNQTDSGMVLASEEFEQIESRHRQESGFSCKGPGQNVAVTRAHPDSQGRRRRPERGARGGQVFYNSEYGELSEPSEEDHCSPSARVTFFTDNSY
value type: pIC50
Numbers only, as −log10 of the molar value.

Given the compound Cl.NC(=O)c1n[nH]cc1NCc1cc(F)cc(NC(=O)Nc2ccc(C(F)(F)F)cc2Cl)c1 [Example 1, hydrochloride] , what is its reported pIC50? 8.52

###

Biological target: PDGFRβ (Homo sapiens, UniProt P09619)
Sequence (P09619 33-1106, species assumed): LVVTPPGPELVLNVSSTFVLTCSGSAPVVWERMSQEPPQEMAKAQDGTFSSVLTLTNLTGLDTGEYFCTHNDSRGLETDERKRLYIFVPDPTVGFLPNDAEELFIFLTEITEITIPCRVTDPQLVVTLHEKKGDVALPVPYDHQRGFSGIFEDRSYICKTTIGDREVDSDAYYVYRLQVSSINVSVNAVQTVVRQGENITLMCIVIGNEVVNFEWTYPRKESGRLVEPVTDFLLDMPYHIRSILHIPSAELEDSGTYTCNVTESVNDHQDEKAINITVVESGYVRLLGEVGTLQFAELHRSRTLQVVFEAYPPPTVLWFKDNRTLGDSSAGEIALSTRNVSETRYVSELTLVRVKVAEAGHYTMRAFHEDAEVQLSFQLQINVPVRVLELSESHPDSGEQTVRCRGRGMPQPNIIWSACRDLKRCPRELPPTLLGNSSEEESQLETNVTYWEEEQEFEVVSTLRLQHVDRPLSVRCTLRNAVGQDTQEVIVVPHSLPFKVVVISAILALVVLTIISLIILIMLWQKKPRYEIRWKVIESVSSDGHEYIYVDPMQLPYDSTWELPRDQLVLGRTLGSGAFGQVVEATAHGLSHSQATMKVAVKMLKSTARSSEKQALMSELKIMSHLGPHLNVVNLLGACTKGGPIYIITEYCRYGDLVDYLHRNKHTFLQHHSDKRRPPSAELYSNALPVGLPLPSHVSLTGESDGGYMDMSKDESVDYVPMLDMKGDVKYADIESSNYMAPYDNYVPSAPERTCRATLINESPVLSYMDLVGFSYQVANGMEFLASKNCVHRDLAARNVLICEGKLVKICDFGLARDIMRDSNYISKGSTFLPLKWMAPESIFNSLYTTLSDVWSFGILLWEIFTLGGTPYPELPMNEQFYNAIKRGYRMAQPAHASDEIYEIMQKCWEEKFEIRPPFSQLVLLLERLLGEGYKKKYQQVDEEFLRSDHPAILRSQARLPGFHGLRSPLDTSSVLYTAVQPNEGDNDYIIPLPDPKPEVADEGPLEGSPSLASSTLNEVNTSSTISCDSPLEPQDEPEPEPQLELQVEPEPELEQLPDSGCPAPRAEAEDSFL
value type: IC50 (nM)
One number for each entry, in nM.

Cl.NC(=O)c1n[nH]cc1NCc1cc(F)cc(NC(=O)Nc2ccc(C(F)(F)F)cc2F)c1 [Example 2, hydrochloride] :: 20

Here is another molecule to look at.
I have this molecule here, Cl.NC(=O)c1n[nH]cc1NCc1cc(F)cc(NC(=O)Nc2ccc(C(F)(F)F)cc2Cl)c1 [Example 1, hydrochloride] , and I need its recorded IC50. 11

###

Reported pIC50, human KDR enzyme (Homo sapiens, UniProt P35968).
Answers are plain numbers, as −log10 of the molar value.

Cl.NC(=O)c1n[nH]cc1NCc1cc(F)cc(NC(=O)Nc2ccc(C(F)(F)F)cc2Cl)c1 [Example 1, hydrochloride] :: 8.52

Request - read-out pIC50 | tested on human KDR enzyme (Homo sapiens, UniProt P35968) | molecule Cl.NC(=O)c1n[nH]cc1NCc1cc(F)cc(NC(=O)Nc2ccc(C(F)(F)F)cc2F)c1 [Example 2, hydrochloride] 8.70

###

Dear all, this message contains IC50 results, target or system FLT1 (Homo sapiens, UniProt P17948).
Numbers only, in nM.

Cl.NC(=O)c1n[nH]cc1NCc1cc(F)cc(NC(=O)Nc2ccc(C(F)(F)F)cc2F)c1 [Example 2, hydrochloride] :: 1.3

In the following, a different compound is considered.
Give its IC50 value. Item: Cl.NC(=O)c1n[nH]cc1NCc1cc(F)cc(NC(=O)Nc2ccc(C(F)(F)F)cc2Cl)c1 [Example 1, hydrochloride] 3
